Provenance of the data: PubChem BioAssay AID1159580

Assay: chemical genetic growth profiling, strain panel (AID 1159580);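 note: tested at 20 µM; growth read once vehicle control cultures reached saturation at 30 °C; 1 = growth at the plate median or of vehicle wells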
Settings: S. cerevisiae deletion strains, growth OD, locus YGR078C, strain PAC10
In all, about 5,500 compounds went through this assay and about 2,000 (36%) were called active. Roughly 18% stayed inconclusive and do not appear here. Cut-off read from the data, not from the text of the source: active = normalized growth mostly below about 0.91 (no sharp cut-off); inconclusive = no clear call, values can overlap the other calls; inactive = mostly above about 0.92. Some of the results follow.
Outcome codes: True (active), False (inactive)

MOLECULE	LABEL VALUE
O=C(O)c1cc(=O)c2cc(Cl)ccc2[nH]1	False
CN(C)/C=C(\C#N)C(=O)Nc1ccc(F)c(Cl)c1	False
O=C(Nc1ccccc1C(=O)NC1CCCCNC1=O)c1cccs1 (stereo not given)	False
FC(F)(F)Oc1ccc(-c2noc(CSc3ccc(Br)cc3)n2)cc1	False
CC(C)N(C(=O)CCl)c1ccccc1	False
COc1ccc(-c2coc3c(OC)c(OC)cc(O)c3c2=O)cc1	False
CCCCOc1ccc(CC(=O)NO)cc1	False
COc1ccccc1C1CCN(Cc2ccc3ccccc3c2)CC1	False
Cc1nn(-c2ccccc2)nc1C(=O)NC(=O)N1CCCC1	False
O=C(O)c1cc(=O)c2ccc(Cl)cc2[nH]1	False
CC(C)(C)NC(=O)N1CCN(c2nc3ccc(Cl)cc3s2)CC1	False
COc1ccccc1C1CCN(C(=O)c2ccc(F)cc2)CC1	False
N[C@@H](CS(=O)O)C(=O)O	False
O=C(O)C1CC([C@@H]2CCCCN2)CN2CCCCC12 (stereo not given in full)	False
COc1ccccc1CC(=O)NC1CCN(Cc2ccccc2)CC1	False
O=C(Nc1ccccc1C(=O)Nc1ccc(Br)cc1)c1ccccc1	False
CC(SCc1ccccc1)C(=O)O (stereo not given)	False
COc1cc2c(cc1OC)C(=O)C(CC1CCN(Cc3ccccc3)CC1)C2 (stereo not given)	True
COc1ccccc1N1CCN(CCCCNC(=O)c2ccc3ccccc3c2)CC1	False
CN1C(=O)CN=C(c2ccccc2)c2ccccc21	False
CCN(CC)C(=S)SSC(=S)N(CC)CC	True
Oc1ccc2c3c1O[C@H]1c4[nH]c5c(c4C[C@@]4(O)[C@@H](C2)N(CC2CC2)CC[C@]314)C[C@@]1(O)[C@H]2Cc3ccc(O)c4c3[C@@]1(CCN2CC1CC1)[C@H]5O4	False
O=Nc1ccc2oc(=O)ccc2c1	False
Cc1cccc(C#Cc2ccccc2)n1	False
NC(N)=Nc1nc(CSCCC(N)=NS(N)(=O)=O)cs1	False

###

Test: chemical genetic growth profiling, strain panel (AID 1159580);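 note: tested at 20 µM; growth read once vehicle control cultures reached saturation at 30 °C; 1 = growth at the plate median or of vehicle wells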
Details: S. cerevisiae deletion strains, growth OD, locus YGR229C, strain SMI1, stronger effect = lower value
Screen size: about 5,500 compounds; about 2,000 (36%) were called active. Inconclusive results (about 18%) are left out. This is one part of the list.
This section presents molecules with their documented normalized growth values.
OBSERVABLE: normalized growth

> print(dat)
                                   molecule  reported.value
1    N#C/C(=C\c1ccc(O)c(O)c1)C(=O)Nc1ccccc1           0.966
2  COC(=O)c1cc(OC)c(OC)c(OC)c1NS(=O)(=O)c1cc(OC)ccc1OC            1.01
3  CC(=O)O[C@@](C)(CCC=C(C)C)C1CC=C(C)CC1 (stereo not given in full)           0.998
4              COc1ccc(C(=O)c2ccccc2)c(O)c1           0.558
5  C[N+](C)(C)CCOP(=O)([O-])OP(=O)(O)OC[C@H]1OC(n2ccc(N)nc2=O)[C@H](O)[C@@H]1O (stereo not given in full)            0.98

###

Assay: chemical genetic growth profiling, strain panel (AID 1159580);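 note: tested at 20 µM; growth read once vehicle control cultures reached saturation at 30 °C; 1 = growth at the plate median or of vehicle wells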
Settings: S. cerevisiae deletion strains, growth OD, locus YLR113W, strain HOG1
About 2,000 (36%) of roughly 5,500 compounds were called active. Another 18% or so got no clear call; they are omitted. Cut-off read from the data, not from the text of the source: active = normalized growth mostly below about 0.91 (no sharp cut-off); inconclusive = no clear call, values can overlap the other calls; inactive = mostly above about 0.92. This is one part of the list.
Outcome codes: active, inactive

MOLECULE	LABEL VALUE
NC[C@@H]1O[C@H](O[C@@H]2[C@@H](CO)OC(O[C@@H]3[C@@H](O)[C@H](N)C[C@H](N)[C@H]3OC3O[C@H](CN)[C@@H](O)[C@H](O)[C@H]3N)[C@@H]2O)[C@H](N)[C@@H](O)[C@@H]1O (stereo partly drawn)	inactive
O=C(Nc1c(Br)c(C2CC2)nn1-c1ccccc1)C(Cl)(Cl)Cl	active
O=C1C[C@@H](c2ccc(O)cc2)Oc2cc(O)cc(O)c21	inactive
N#Cc1c(Cl)c(Cl)c(Cl)c(Cl)c1C#N	active
CCCCCC(C)N (stereo not drawn)	inactive
O=C1CCO1	inactive
COc1ccc(NC(=O)O/N=C(/N)c2ccc(Oc3c(Cl)cncc3Cl)cc2)cc1	active
O=C(O)/C=C/C=C/c1ccc2c(c1)OCO2	inactive
CN1CCc2cc3c(cc2C1O)OCO3 (stereo not drawn)	inactive
COc1ccc([C@@H]2CC(=O)c3c(O)cc(O)cc3O2)cc1O	inactive
Cn1cncc1S(=O)(=O)/C(C#N)=C/c1ccccc1Sc1ccc(Cl)cc1	active
CC(C)(C)CC(C)(C)c1ccc(OCCOCC[N+](C)(C)Cc2ccccc2)cc1	active
C=C1CC[C@H](O)C/C1=C/C=C1\CCC[C@]2(C)C([C@H](C)/C=C/[C@H](C)C(C)C)CC[C@@H]12 (stereo partly drawn)	inactive
Oc1ccc(O)cc1	inactive
CC(C(=O)O)c1ccc2c(c1)[nH]c1ccc(Cl)cc12 (stereo not drawn)	active
CC(C)CC1C(=O)N2CCC[C@H]2C2(O)O[C@](NC(=O)C3C=C4c5cccc6[nH]c(Br)c(c56)C[C@H]4N(C)C3)(C(C)C)C(=O)N12 (stereo partly drawn)	inactive
C=C1CC[C@H](O)C/C1=C/C=C1\CCCC2(C)C1CCC2C(C)CCCC(C)C (stereo partly drawn)	active
Cn1c([N+](=O)[O-])cnc1/C=C(\C#N)C(=O)Nc1ccc(F)cc1	active
O=C(O)C1CC([C@@H]2CCCCN2)CN2CCCCC12 (stereo partly drawn)	inactive
N#C/C(=N/Nc1ccccc1Cl)S(=O)(=O)c1ccc(Cl)cc1	inactive
O=C(Nc1cc(Cl)cc(Cl)c1)Nc1cc(-c2ccco2)[nH]n1	active
NC(N)=Nc1nc(-c2cc(Cl)sc2Cl)cs1	active
O=C(NCc1ccco1)c1ccc(Oc2cc(Cl)cc(Cl)c2)o1	active
O=C(O)COc1cc(Cl)c(Cl)cc1Cl	inactive
O=C(/C=C/C=C/c1ccc2c(c1)OCO2)N1CCCCC1	inactive
C/C=C(/C(=C/C)c1ccc(O)cc1)c1ccc(O)cc1	inactive
CCc1nc(N)nc(N)c1-c1ccc(Cl)cc1	inactive
COc1ccc(-c2coc3c(OC)c(OC)cc(O)c3c2=O)cc1	inactive
CC(=O)O[C@H]1C(=O)[C@@]2(C)C([C@H](OC(=O)c3ccccc3)[C@]3(O)C[C@H](OC(=O)[C@H](O)[C@@H](NC(=O)c4ccccc4)c4ccccc4)C(C)=C1C3(C)C)[C@]1(OC(C)=O)CO[C@@H]1C[C@@H]2O (stereo partly drawn)	inactive
CCC1(c2ccccc2)C(=O)NCNC1=O	inactive
C/C(=N/NC(N)=S)c1ccc(Oc2c(Cl)cncc2Cl)cc1	inactive
Cc1cc(C(C)(C)CC(C)(C)C)ccc1OCCOCC[N+](C)(C)Cc1ccccc1	active
CC(=O)O[C@H]1C(=O)[C@@]2(C)C([C@H](OC(=O)c3ccccc3)[C@]3(O)C[C@H](O)C(C)=C1C3(C)C)[C@]1(OC(C)=O)CO[C@@H]1C[C@@H]2O (stereo partly drawn)	inactive
Cc1ccc2c(c1)CC[C@H]1CC(=O)CC[C@]21C	inactive
N#Cc1c(Cl)c(Cl)c(Cl)c(C#N)c1Cl	active
CCC1(c2ccc(N)cc2)CCC(=O)NC1=O (stereo not drawn)	inactive
C[n+]1ccccc1/C=N\O	inactive
CCC1(C)CC(=O)NC1=O (stereo not drawn)	inactive
C[N+](C)(CCOc1ccccc1)Cc1ccccc1	active
O=C(/C=C/c1ccccc1)O[C@H]1C[C@@H](O)[C@]2(O)C=CO[C@@H](O[C@@H]3O[C@H](CO)[C@@H](O)[C@H](O)[C@H]3O)[C@H]12	inactive
N#C/C(=C\c1ccccc1Sc1ccc(Cl)cc1)S(=O)(=O)c1ccccn1	active
CC(C)(CO)C(O)C(=O)NCCCO (stereo not drawn)	inactive
O=C(Nc1cc(Cl)cc(Cl)c1)Nc1cc(-c2cccs2)[nH]n1	active

###

Experiment: chemical genetic growth profiling, strain panel (AID 1159580);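 note: tested at 20 µM; growth read once vehicle control cultures reached saturation at 30 °C; 1 = growth at the plate median or of vehicle wells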
Details: S. cerevisiae strains, growth OD, strain wild type
Hit rate of the full screen: of about 5,500 compounds, about 2,000 (36%) were called active. Inconclusive results (about 18%) are left out. No stated cut-off is given here; in the data, active means normalized growth mostly below about 0.91 (no sharp cut-off); inconclusive means no clear call, values can overlap the other calls; inactive means mostly above about 0.92. The list shows a part of the results.
Outcome codes: active, inactive

MOLECULE	LABEL VALUE
COc1ccc(C2CC(=O)c3ccc(OC)cc3O2)cc1 (stereo not given)	active
COc1cc(OC)c2c(c1)OC(c1ccccc1)CC2=O (stereo not given)	inactive
C[C@@H]1O[C@@H](O[C@H]2[C@@H](Oc3cc(O)c4c(c3)O[C@H](c3ccc(O)cc3)CC4=O)O[C@H](CO)[C@@H](O)[C@@H]2O)[C@H](O)[C@H](O)[C@H]1O	inactive
COc1ccc([C@@H]2CC(=O)c3c(O)cc(O)cc3O2)cc1O	inactive
CC(=O)[C@H]1CCC2C3C[C@H](C)C4=CC(=O)CC[C@]4(C)C3[C@@H](O)C[C@@]21C (stereo not given in full)	inactive
